The entries below are paired with their reported viability, T/C.
System: HUVEC/MSC spheroids viability
Experiment: Human HUVEC/MSC cell line growth inhibition [KRAS2];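 note: percent of DMSO vehicle control luminescence so 100% = untreated viability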
Conditions: second compound 1 µM; first compound 1 µM; hits give low values
Field format: number, assumed %, no unit text.

Reference set, count: 4
[
  {
    "Compound": "CC(C)NCC(C(=O)N1CCN(c2ncnc3c2C(C)CC3O)CC1)c1ccc(Cl)cc1 (stereo unspecified) + CC1OCC2(CCN(c3cnc(Sc4ccnc(N)c4Cl)c(N)n3)CC2)C1N",
    "Attribute measured": "viability, T/C",
    "Uom": "%",
    "Observed measurement": 56.4
  },
  {
    "Compound": "Cn1nccc1Nc1nccc(-c2cc3c(s2)C(C)(C)N(CCN2CCOCC2)C3=O)n1 + CNCc1ccccc1-c1csc(C(C)Nc2nc(C)nc3cc(OC)c(OC)cc23)c1",
    "Attribute measured": "viability, T/C",
    "Uom": "%",
    "Observed measurement": 96.7
  },
  {
    "Compound": "COC(=O)c1ccc2c(C(=Nc3ccc(N(C)C(=O)CN4CCN(C)CC4)cc3)c3ccccc3)c(O)[nH]c2c1 + COc1cc2nc(C)nc(NC(C)c3cc(N)cc(C(F)(F)F)c3)c2cc1OC1CCOC1",
    "Attribute measured": "viability, T/C",
    "Uom": "%",
    "Observed measurement": 38.6
  },
  {
    "Compound": "CCN1CCN(Cc2ccc(Nc3ncc(F)c(-c4cc(F)c5nc(C)n(C(C)C)c5c4)n3)nc2)CC1 + COc1cc2nc(C)nc(NC(C)c3cc(N)cc(C(F)(F)F)c3)c2cc1OC1CCOC1",
    "Attribute measured": "viability, T/C",
    "Uom": "%",
    "Observed measurement": 117
  }
]

GET /values?readout=viability, T/C&item= COc1cc(Nc2ncc3c(n2)-c2ccc(Cl)cc2C(c2c(F)cccc2OC)=NC3)ccc1C(=O)O + CC1OCC2(CCN(c3cnc(Sc4ccnc(N)c4Cl)c(N)n3)CC2)C1N 81.7

GET /values?readout=viability, T/C&item= CCNC(=O)CC1N=C(c2ccc(Cl)cc2)c2cc(OC)ccc2-n2c(C)nnc21 (stereo unspecified) + CC1OCC2(CCN(c3cnc(Sc4ccnc(N)c4Cl)c(N)n3)CC2)C1N 68.4

GET /values?readout=viability, T/C&item= CC1OCC2(CCN(c3cnc(Sc4ccnc(N)c4Cl)c(N)n3)CC2)C1N (stereo unspecified) + COc1cc2nc(C)nc(NC(C)c3cc(N)cc(C(F)(F)F)c3)c2cc1OC1CCOC1 72.3
